Tested on: Citrobacter diversus
MEASUREMENT_NOTES: MIC against Gram-negative bacteria: Citrobacter diversus
Type: cell-based
APPLIED_CONDITIONS: Citrobacter diversus; 96-well plate, 5×10^5 CFU/mL, 37° C., 10 h

SUBSTANCE: PRT1253 (WPRQCPCLVDGARYWPGQRIKADCQLCICQDGRPRRCR; listed as Homo sapiens)
MIC against C. diversus [µg/mL]: 25

SUBSTANCE: PRT1303 (HGLCRSVEKDSVVCECRPGWTGPLCD; listed as Homo sapiens)
MIC against C. diversus [µg/mL]: 12.5

SUBSTANCE: PRT1246 (CKELCSCHPHGQCEDVTGQCTCHARRWGARCE; listed as Homo sapiens)
MIC against C. diversus [µg/mL]: 12.5

SUBSTANCE: PRT1291 (PIHACISNPCKHGGTCHLKEGEEDGFWCICADGFEGENCE; listed as Homo sapiens)
MIC against C. diversus [µg/mL]: 50

SUBSTANCE: PRT1309 (EVDPCAHGHGGCSPHANCTKVAPGQRTCTCQDGYMGDGELCQ; listed as Homo sapiens)
MIC against C. diversus [µg/mL]: 25

SUBSTANCE: PRT1237 (LGPGCLDNCRGHGDCLREQCICDPGYSGPNCY; listed as Homo sapiens)
MIC against C. diversus [µg/mL]: 25

SUBSTANCE: PRT1196 (DVDLCEPSPCRNGARCYNLEGDYYCACPDDFGGKNCS; listed as Homo sapiens)
MIC against C. diversus [µg/mL]: 50

SUBSTANCE: PRT1319 (SMGDCGPTGLAQHCHLHARCVSQEGVARCRCLDGFEGDGFS; listed as Homo sapiens)
MIC against C. diversus [µg/mL]: 12.5

SUBSTANCE: PRT1264 (DIDECGNELNGGCVHDCLNIPGNYRCTCFDGFMLAHDGHNCL; listed as Homo sapiens)
MIC against C. diversus [µg/mL]: 12.5

SUBSTANCE: PRT1343 (VFHECFFNPCHNSGTCQQLGRGYVCLCPLGYTGLKCE; listed as Homo sapiens)
MIC against C. diversus [µg/mL]: 50

SUBSTANCE: PRT1218 (DINECEREECENGGSCVNVFGSFLCNCTPGYVGQYCG; listed as Homo sapiens)
MIC against C. diversus [µg/mL]: 25

SUBSTANCE: PRT1213 (HSDYCSQNTCLNGGKCSWTHGAGYVCKCPPQFSGKHCE; listed as Homo sapiens)
MIC against C. diversus [µg/mL]: 25

SUBSTANCE: PRT1272 (DVDECVEGTDNCHIDAICQNTPRSYKCICKSGYTGDGKHCK; listed as Homo sapiens)
MIC against C. diversus [µg/mL]: 50

SUBSTANCE: PRT1316 (ELPVCQELRCPQNTQCSAEAPSCRCLPGYTQQGSE; listed as Homo sapiens)
MIC against C. diversus [µg/mL]: 12.5

SUBSTANCE: PRT1270 (DVDECSLDRTCDHSCINHPGTFACACNRGYTLYGFTHCG; listed as Homo sapiens)
MIC against C. diversus [µg/mL]: 12.5

SUBSTANCE: PRT1313 (VADLCQDGHGGCSEHANCSQVGTMVTCTCLPDYEGDGWSCR; listed as Homo sapiens)
MIC against C. diversus [µg/mL]: 50
